Just for reference, patent US20240010684A1 is where these values come from.

system under test: recombinant human MASP2 (amino acids 297-686, C-terminal His Tag) (human, UniProt O00187 297-686)
Sequence (O00187 other isoform, or with tags, fused parts or gaps limits assumed): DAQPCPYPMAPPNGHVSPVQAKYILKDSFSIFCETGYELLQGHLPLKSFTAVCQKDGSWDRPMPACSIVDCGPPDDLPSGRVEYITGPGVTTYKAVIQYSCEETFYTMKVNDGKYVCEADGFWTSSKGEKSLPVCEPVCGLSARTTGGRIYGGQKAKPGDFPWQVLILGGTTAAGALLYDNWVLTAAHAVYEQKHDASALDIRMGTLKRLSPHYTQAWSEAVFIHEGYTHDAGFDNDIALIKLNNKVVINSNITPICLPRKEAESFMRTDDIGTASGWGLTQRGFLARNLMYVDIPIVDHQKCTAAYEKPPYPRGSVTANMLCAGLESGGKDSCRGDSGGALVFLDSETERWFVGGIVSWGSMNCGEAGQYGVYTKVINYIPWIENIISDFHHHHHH
assay protocol: cell-based or functional assay
*1 amine or outer side, *2 acyl side, *3 side chain or, on linkers, in order; H or OH if unused. Bridges are numbered along the chain shown (N, C = ends). [ ]: non-standard residue; d: D form. TTDS = 1,13-diamino-4,7,10-trioxatridecan-succinamic acid, O=C(CCC(=O)[*:2])NCCCOCCOCCOCCCN[*:1]; Oic = O=C(O)[C@@H]1C[C@@H]2CCCC[C@@H]2N1; tBuAla = CC(C)(C)C[C@H](N)C(=O)O; Pen = CC(C)(S)[C@H](N)C(=O)O; Dap = NC[C@H](N)C(=O)O; Ahx = NCCCCCC(=O)O
recorded endpoint: human MASP2 IC50 (nM)

Look over these answered cases.
cyclo([Dap]ICSRSLP[Oic]I[Pen]IP) (disulfide 3-11; also: TFA salt) [Example 87: (Dap)**-IC+SRSLP-(Oic)-I-(Pen)+-IP**]	700
cyclo([TTDS]AICSRS[tBuAla]PPI[Pen]IPD) (disulfide 4-12; also: TFA salt) [Example 63: (TTDS)**-AIC+SRS-((tBu)A)-PPI-(Pen)+-IPD**]	170

[a] cyclo([Ahx]AICSRS[tBuAla]PPI[Pen]IP) (disulfide 4-12; also: TFA salt) [Example 53: (Ahx)**-AIC+SRS-((tBu)A)-PPI-(Pen)+-IP**]
[b] [Ahx]GICSRSLP[Oic]I[Pen]IPD-NH2 (disulfide 4-12; lactam N-15; also: TFA salt) [Example 49: (Ahx)**-GIC+SRSLP-(Oic)-I-(Pen)+-IPD++-NH2]
[c] cyclo([Dap]ICSRS[tBuAla]PPI[Pen]IP) (disulfide 3-11; also: TFA salt) [Example 55: (Dap)**-IC+SRS-((tBu)A)-PPI-(Pen)+-IP**]
Would you mind ranking these binders by ascending human MASP2 IC50? Give me the labels in the order the question wants. a, b, c
(a: 83.5 nM, b: 140 nM, c: 900 nM)
